The values you see were collected from the supplement of paper PMC7877785.

assay: self-splicing fitness, log relative to wild type (ln ratio); higher = more splicing; Tetrahymena group I intron in knt gene, E. coli kanamycin selection, DiMSum; sequences stand for … in CUCUCU…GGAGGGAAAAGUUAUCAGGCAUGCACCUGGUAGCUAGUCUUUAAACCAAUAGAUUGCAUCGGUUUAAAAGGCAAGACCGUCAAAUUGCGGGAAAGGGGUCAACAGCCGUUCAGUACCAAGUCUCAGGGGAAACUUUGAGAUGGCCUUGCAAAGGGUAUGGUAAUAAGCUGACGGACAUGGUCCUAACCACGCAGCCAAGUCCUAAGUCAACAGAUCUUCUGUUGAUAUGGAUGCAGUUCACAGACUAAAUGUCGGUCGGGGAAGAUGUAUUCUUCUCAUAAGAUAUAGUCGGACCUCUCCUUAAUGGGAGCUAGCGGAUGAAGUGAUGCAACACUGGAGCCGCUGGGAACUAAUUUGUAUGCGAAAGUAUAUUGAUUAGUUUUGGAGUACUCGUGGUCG; conditions: 37 °C;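 further: selection with 25 µg/mL kanamycin versus none on LB agar overnight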
The reader will find reported self-splicing fitness (ln) values listed item by item below.
reported-property: self-splicing fitness (ln)

           sequence_data           reported_property  test_value
 0  GUCCAGCAAUAUUACGUAUA  self-splicing fitness (ln)      -0.787
 1  CACAAGCAAUAUUACGACGU  self-splicing fitness (ln)      -0.614
 2  GGACAGCAAUAUUACGUUGA  self-splicing fitness (ln)       0.279
 3  CGGCAGCAAUAUUACGUCAA  self-splicing fitness (ln)       -1.43
 4  CCUGAGCAAUAUUACGUGUA  self-splicing fitness (ln)       -2.16
 5  UUCUAGCAAUAUUACGUUUA  self-splicing fitness (ln)       -1.45
 6  UGAUAGCAAUAUUACGCGCG  self-splicing fitness (ln)      -0.283
 7  UCAAAGCAAUAUUACGAGCA  self-splicing fitness (ln)      -0.556
 8  ACUAAGCAAUAUUACGAAGG  self-splicing fitness (ln)      -0.966
 9  UCUCAGCAAUAUUACGCCGA  self-splicing fitness (ln)      -0.855
10  AUGGAGCAAUAUUACGUCUG  self-splicing fitness (ln)       -2.04
11  CAACAGCAAUAUUACGGCCU  self-splicing fitness (ln)        -1.3
12  CUUCAGCAAUAUUACGAGAC  self-splicing fitness (ln)       -3.01
13  GACAAGCAAUAUUACGCCGC  self-splicing fitness (ln)       -2.97
14  ACGUAGCAAUAUUACGAGUC  self-splicing fitness (ln)        -3.2
15  UCGUAGCAAUAUUACGCGCU  self-splicing fitness (ln)       -1.78

###

assay: self-splicing fitness, log relative to wild type (ln ratio); higher = more splicing; Tetrahymena group I intron in knt gene, E. coli kanamycin selection, DiMSum; sequences stand for … in CUCUCU…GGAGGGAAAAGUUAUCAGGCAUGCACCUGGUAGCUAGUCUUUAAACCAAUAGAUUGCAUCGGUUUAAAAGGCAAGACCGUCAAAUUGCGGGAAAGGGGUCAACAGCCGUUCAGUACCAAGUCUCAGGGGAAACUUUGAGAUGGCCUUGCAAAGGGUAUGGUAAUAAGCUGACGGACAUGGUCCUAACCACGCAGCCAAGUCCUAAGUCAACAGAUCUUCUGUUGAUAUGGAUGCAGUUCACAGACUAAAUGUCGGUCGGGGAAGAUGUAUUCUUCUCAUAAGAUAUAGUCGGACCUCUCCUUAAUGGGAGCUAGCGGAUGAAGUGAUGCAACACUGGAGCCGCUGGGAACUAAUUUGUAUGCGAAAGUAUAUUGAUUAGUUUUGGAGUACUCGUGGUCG; conditions: 37 °C
reported-property: self-splicing fitness (ln)

In [3]: df
Out[3]:
           sequence_data  test_value
 0  UCAAAGCAAUAUUACGGUCU       -1.58
 1  CCCAAGCAAUAUUACGACGU       -2.43
 2  CCCGAGCAAUAUUACGUAGA       -2.92
 3  GUAAAGCAAUAUUACGUGUC       -1.14
 4  AUGGAGCAAUAUUACGUGAA       -2.03
 5  AUCAAGCAAUAUUACGUCGU      -0.574
 6  GACGAGCAAUAUUACGCUGU        -2.9
 7  UCGUAGCAAUAUUACGUAUU      -0.594
 8  GAUCAGCAAUAUUACGACGC       0.198
 9  CUUCAGCAAUAUUACGACAU       -2.28
10  AACAAGCAAUAUUACGUGAU       -1.46
11  CGUGAGCAAUAUUACGACUA       -1.94
12  CUUUAGCAAUAUUACGUCUC       -3.21
13  GGGUAGCAAUAUUACGCUAA     -0.0326
14  AGUUAGCAAUAUUACGCCUG       -1.46
15  UGCCAGCAAUAUUACGUUGA       -1.26

###

assay: self-splicing fitness, log relative to wild type (ln ratio); higher = more splicing; Tetrahymena group I intron in knt gene, E. coli kanamycin selection, DiMSum; sequences stand for … in CUCUCU…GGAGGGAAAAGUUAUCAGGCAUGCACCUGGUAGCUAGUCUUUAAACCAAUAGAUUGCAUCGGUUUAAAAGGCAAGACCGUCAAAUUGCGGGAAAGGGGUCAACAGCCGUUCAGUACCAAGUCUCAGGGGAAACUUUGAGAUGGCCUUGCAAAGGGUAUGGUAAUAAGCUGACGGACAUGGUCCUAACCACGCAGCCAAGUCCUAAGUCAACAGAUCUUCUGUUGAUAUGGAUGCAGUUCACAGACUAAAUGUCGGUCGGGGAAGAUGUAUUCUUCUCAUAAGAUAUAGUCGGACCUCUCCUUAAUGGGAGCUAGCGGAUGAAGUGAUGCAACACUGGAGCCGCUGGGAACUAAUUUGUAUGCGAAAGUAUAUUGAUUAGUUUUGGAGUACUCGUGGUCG; conditions: 37 °C
Tag: TRUE if measured self-splicing fitness (ln) is not below -2, FALSE if it is.

>>> print(df.to_string())
           sequence_data  answer_label
 0  GAAGAGCAAUAUUACGGUAU         FALSE
 1  CAACAGCAAUAUUACGUUGC          TRUE
 2  GCCGAGCAAUAUUACGCGGU         FALSE
 3  UAUCAGCAAUAUUACGGACU          TRUE
 4  CCUAAGCAAUAUUACGCUGG         FALSE
 5  GCUCAGCAAUAUUACGCGAG         FALSE
 6  UCGCAGCAAUAUUACGGCUA          TRUE
 7  CCUCAGCAAUAUUACGUAGU          TRUE
 8  GUAUAGCAAUAUUACGCAAA          TRUE
 9  GAGCAGCAAUAUUACGUUGA          TRUE
10  UGCCAGCAAUAUUACGAAUA          TRUE
11  UUCCAGCAAUAUUACGGGGA         FALSE
12  ACAAAGCAAUAUUACGCGUU         FALSE
13  CUAUAGCAAUAUUACGAGCG          TRUE
14  GUCCAGCAAUAUUACGGUGU          TRUE
15  CCGCAGCAAUAUUACGAUUG          TRUE
16  CUCGAGCAAUAUUACGAUAC         FALSE
17  GGCUAGCAAUAUUACGCGCA          TRUE
18  AAAAAGCAAUAUUACGGCAU          TRUE
19  AAGAAGCAAUAUUACGUACG          TRUE
20  CCAGAGCAAUAUUACGAGUC          TRUE
21  UCACAGCAAUAUUACGCUGC         FALSE
22  UGGUAGCAAUAUUACGGAUU          TRUE
23  GGAAAGCAAUAUUACGCGCC         FALSE
24  AGUGAGCAAUAUUACGAGAC         FALSE
25  UAGCAGCAAUAUUACGACUG          TRUE
26  CUGCAGCAAUAUUACGUGUA         FALSE
27  AGAAAGCAAUAUUACGUACA          TRUE
28  UUAGAGCAAUAUUACGCGAU         FALSE
29  UUUUAGCAAUAUUACGGAAG          TRUE
30  CAACAGCAAUAUUACGCCCA          TRUE
31  GUUAAGCAAUAUUACGGAGC         FALSE
